Origin of measurements: patent US20200317802A1

Each entry below carries its recorded AlphaLISA IC50, - HSA.
Molecular target: T1, recombinant human ADAMTS5 (R&D Systems cat #2198-AD) (human, UniProt Q9UNA0 262-622, limits assumed)
T1 sequence: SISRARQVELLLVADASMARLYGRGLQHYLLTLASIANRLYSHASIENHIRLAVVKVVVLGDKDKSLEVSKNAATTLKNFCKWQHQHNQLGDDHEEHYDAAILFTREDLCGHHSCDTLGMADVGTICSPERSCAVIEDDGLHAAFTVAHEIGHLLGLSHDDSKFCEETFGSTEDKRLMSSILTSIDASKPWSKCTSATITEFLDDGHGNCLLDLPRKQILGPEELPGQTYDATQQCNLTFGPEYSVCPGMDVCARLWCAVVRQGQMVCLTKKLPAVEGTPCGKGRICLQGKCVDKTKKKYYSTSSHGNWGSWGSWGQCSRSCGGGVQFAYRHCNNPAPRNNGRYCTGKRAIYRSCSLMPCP
Assay: cell-based or functional assay

Here's what some known entries look like.
INSERT INTO assay_data (binder, readout_type, experimental_result) VALUES
  ('Nanobody 3B02 (VHH, tagged as tested (anti-Flag detection, IMAC); also called 03B02; 3B2) VHH: EVQLVESGGGFVQAGGSLRLSCVASRRTISSGTMGWFRQAPGKEREFVAAIRWSSGMPYYLDSVMDRFTISRDNAKNTVSLQMNSLQPEDTAVYYCAADRSAFRDPSFDVNYEYWGRGTLVTVSS', 'AlphaLISA IC50, - HSA', '0.3 nM'),
  ('Nanobody 2D07 (VHH, tagged as tested (anti-Flag detection, IMAC); also called 02D07; 2D7) VHH: EVQLVESGGGLVQAGGSLRLSCSFSGPGRTFARYAMGWFRQAPGKNRDFITGISGSGDSTYYVYPMKDRFTISRDNAKNMVYLQMNALKPEDTAVYYCAADREINRIANDKELDFWGQGTLVTVSS', 'AlphaLISA IC50, - HSA', '0.19 nM'),
  ('Nanobody 2F03 (VHH, tagged as tested (anti-Flag detection, IMAC); also called 02F03; 2F3) VHH: EVQLVESGGGLVQAGGSLRLSCAASGRTVSSYAMGWFRLAPGKEREFVAGISRSAERTYYVDSLKGRFTISRDSAKNTVYLHMNRLKPEDTAVYYCAADLDPNRIFSREEYAYWGQGTLVTVSS', 'AlphaLISA IC50, - HSA', '0.075 nM');

-- ask Return reported AlphaLISA IC50, - HSA; argument: Nanobody 2A12 (VHH, tagged as tested (anti-Flag detection, IMAC); also called 02A12) VHH: EVQLVESGGGLVQAGGSLRLSCAASGRTFSSYAMGWFRQAPGKERDFVAGISRSAGRTYYVDSVKGRFTISRDSAKNTVYLQMNRLKPEDTAVYYCAADLDPNRIFSRDEAAYWGQGTLVTVSS
-- reply 0.15 nM
